What Ki was measured for each of the following?
Study target: Pancreatic elastase (Sus scrofa, UniProt P08419+P00772)
Run description: Ki value was evaluated for the inhibition of porcine pancreatic elastase
Type: protein assay
Numbers only, in mM.

See these solved cases before continuing.
Entry CCCCNC(=O)n1ccnc1C — recorded Ki = 2.41

Entry CCC(C)[C@H](NC(=O)n1ccnc1)C(=O)OC (stereo partly drawn) — recorded Ki = 1.22

Now for another entry.
Entry CCCCNC(=O)n1cnc(C)c1 — recorded Ki = 7.23

----------
Study target: Pancreatic elastase (Sus scrofa, UniProt P08419+P00772)
Run description: Ki value was evaluated for the inhibition of porcine pancreatic elastase
Assay type: protein assay
Labelling field: enter 1 if recorded Ki is less than 1000 µM. Enter -1 if it equals or exceeds that cut-off.

Quick check: Ki of CCCCNC(=O)n1ccnc1CC under 1000 µM?
1

More entries:
Quick check: Ki of COC(=O)[C@H](CC(C)C)NC(=O)n1ccnc1 under 1000 µM?
-1

Quick check: Ki of COC(=O)[C@@H](NC(=O)n1ccnc1)C(C)C under 1000 µM?
-1

Quick check: Ki of CCCCNC(=O)n1ccnc1 under 1000 µM?
-1

Quick check: Ki of CCC[C@H](NC(=O)n1ccnc1)C(=O)OC under 1000 µM?
1

Quick check: Ki of CCCCC(NC(=O)n1ccnc1)C(=O)OC (configuration not stated) under 1000 µM?
-1

Quick check: Ki of CCCCCCCc1nccn1C(=O)NCCCC under 1000 µM?
-1
